Molecular target: Acremonium chrysogenum NBRC30055-derived saccharide oxidase (Hapsidospora chrysogena)
Experiment: Investigation of substrate specificity
Format: biochemical
Conditions: relative activity 50% or higher versus glucose is judged satisfactory
measure: effect of the saccharide oxidase on the substrate (in words)

molecule	assay system	measured value
OC[C@H]1O[C@@](CO)(O[C@H]2O[C@H](CO)[C@@H](O)[C@H](O)[C@H]2O)[C@@H](O)[C@@H]1O	Acremonium chrysogenum NBRC30055-derived saccharide oxidase (Hapsidospora chrysogena)	No effect
OC[C@H]1O[C@@H](O[C@H]2[C@H](O)[C@@H](O)[C@H](O)O[C@@H]2CO)[C@H](O)[C@@H](O)[C@@H]1O [D(+)-Cellobiose]	Acremonium chrysogenum NBRC30055-derived saccharide oxidase (Hapsidospora chrysogena)	satisfactory effect
OC[C@H]1O[C@H](O[C@H]2[C@H](O)[C@@H](O)[C@@H](O[C@H]3[C@H](O)[C@@H](O)[C@@H](O[C@H]4[C@H](O)[C@@H](O)C(O)O[C@@H]4CO)O[C@@H]3CO)O[C@@H]2CO)[C@H](O)[C@@H](O)[C@@H]1O (some centres unmarked)	Acremonium chrysogenum NBRC30055-derived saccharide oxidase (Hapsidospora chrysogena)	satisfactory effect
O=C[C@H](O)[C@@H](O)[C@@H](O)[C@H](O)CO	Acremonium chrysogenum NBRC30055-derived saccharide oxidase (Hapsidospora chrysogena)	satisfactory effect
O=C(CO)[C@@H](O)[C@H](O)[C@H](O)CO [D(−)-Fructose]	Acremonium chrysogenum NBRC30055-derived saccharide oxidase (Hapsidospora chrysogena)	No effect
